# Test Target: CDK2/Cyclin A2 (Homo sapiens (Human))
# Method Description: Kinase activity assay (Caliper Mobility Shift Assay), CDK2/Cyclin A2
# Assay type: biochemical
Endpoint Name: IC50

Compound | Endpoint Name | Result Value
CC(C)n1nnc2ccc3cnc(NC4CCCNC4=O)nc3c21 (stereo not drawn) [II.36] | IC50 | > 500 nM
CC(C)n1nnc2ccc3cnc(N[C@H]4CC[C@H](N)CC4)nc3c21 [II.1] | IC50 | > 500 nM
CC(C)n1nnc2ccc3cnc(N[C@H]4CC[C@H](N5CCN(CC6CCCC6)CC5)CC4)nc3c21 [II.8] | IC50 | > 500 nM
